- Test system: S. aureus isolate, ATCC 13709
- measurement description: ED50 IV study, mouse systemic infection model
- Type: in vivo
- conditions used: Staphylococcus aureus, ATCC13709, mg/kg required to protect 50% of mice in septicemia model with S. aureus Smith strain, 60 minutes post infection, 48 hour survival
Quick rule for you: ED50 under 0.3 mg/kg gets yes (1), anything else gets no (0).

Take a look at these entries with their results.
| compound | assigned category |
| --- | --- |
| CC(C)CNCC(=O)Nc1cc(F)c2c(c1O)C(=O)C1=C(O)[C@]3(O)C(=O)C(C(N)=O)=C(O)[C@@H](N(C)C)[C@@H]3C[C@@H]1C2 [drawing 215] | no (0) |
| CN(C)[C@@H]1C(O)=C(C(N)=O)C(=O)[C@@]2(O)C(O)=C3C(=O)c4c(O)c(NC(=O)CNCC5CC5)cc(F)c4C[C@H]3C[C@@H]12 [drawing 218] | no (0) |
| CN(C)c1cc(NC(=O)CNC(C)(C)C)c(O)c2c1C[C@H]1C[C@H]3[C@H](N(C)C)C(O)=C(C(N)=O)C(=O)[C@@]3(O)C(O)=C1C2=O | no (0) |
| CN(C)CC(=O)Nc1cc(F)c2c(c1O)C(=O)C1=C(O)[C@]3(O)C(=O)C(C(N)=O)=C(O)[C@@H](N(C)C)[C@@H]3C[C@@H]1C2 [drawing 220] | yes (1) |

Shifting focus to the compound that follows.
Consider the compound CN(C)[C@@H]1C(O)=C(C(N)=O)C(=O)[C@@]2(O)C(O)=C3C(=O)c4c(O)c(NC(=O)CN5CCC5)cc(F)c4C[C@H]3C[C@@H]12 [drawing 216] . Is its ED50 strictly less than 0.3 mg/kg?
yes (1)

----------
# Lookup of reported Meta Stab % keyed by entry
- measurement description: Metabolic stability, pooled human microsome assay
- Type: in vitro ADME
- conditions used: % compound remaining after 60 min, 37° C. incubation with human liver microsomes
The response must be a number in % with no trailing unit.

Worked set:
| molecule | number |
| --- | --- |
| CC(C)NCC(=O)Nc1cc(F)c2c(c1O)C(=O)C1=C(O)[C@]3(O)C(=O)C(C(N)=O)=C(O)[C@@H](N(C)C)[C@@H]3C[C@@H]1C2 [drawing 219] | 96 |
| CN(C)c1cc(NC(=O)CNC(C)(C)C)c(O)c2c1C[C@H]1C[C@H]3[C@H](N(C)C)C(O)=C(C(N)=O)C(=O)[C@@]3(O)C(O)=C1C2=O | 55 |
| CN(C)[C@@H]1C(O)=C(C(N)=O)C(=O)[C@@]2(O)C(O)=C3C(=O)c4c(O)c(NC(=O)CN5CCCC5)cc(F)c4C[C@H]3C[C@@H]12 [drawing 217] | 86 |
| CN(C)[C@@H]1C(O)=C(C(N)=O)C(=O)[C@@]2(O)C(O)=C3C(=O)c4c(O)c(NC(=O)CNC(C)(C)C)cc(F)c4C[C@H]3C[C@@H]12 [drawing 214] | 104 |
| CN(C)[C@@H]1C(O)=C(C(N)=O)C(=O)[C@@]2(O)C(O)=C3C(=O)c4c(O)c(NC(=O)CNCC5CC5)cc(F)c4C[C@H]3C[C@@H]12 [drawing 218] | 65 |

So, CN(C)CC(=O)Nc1cc(F)c2c(c1O)C(=O)C1=C(O)[C@]3(O)C(=O)C(C(N)=O)=C(O)[C@@H](N(C)C)[C@@H]3C[C@@H]1C2 [drawing 220] ? Its Meta Stab % was 109

So, CN(C)[C@@H]1C(O)=C(C(N)=O)C(=O)[C@@]2(O)C(O)=C3C(=O)c4c(O)c(NC(=O)CN5CCC5)cc(F)c4C[C@H]3C[C@@H]12 [drawing 216] ? Its Meta Stab % was 85

So, CC(C)CNCC(=O)Nc1cc(F)c2c(c1O)C(=O)C1=C(O)[C@]3(O)C(=O)C(C(N)=O)=C(O)[C@@H](N(C)C)[C@@H]3C[C@@H]1C2 [drawing 215] ? Its Meta Stab % was 72

----------
# Lookup of reported MIC keyed by entry
- Tested on: K. pneumoniae KP153 (tet resistant: tetA efflux)
- measurement description: microbe, parasite or virus in culture
- Format: cell-based
- conditions used: Klebsiella pneumoniae, read-out: MICs KP153
The response must be a number in µg/mL with no trailing unit.

Worked set:
| compound | target or system | MIC, µg/mL |
| --- | --- | --- |
| COC[C@@H]1CCCN1CC(=O)Nc1cc(F)c2c(c1O)C(=O)C1=C(O)[C@]3(O)C(=O)C(C(N)=O)=C(O)[C@@H](N(C)C)[C@@H]3C[C@@H]1C2 [Compound 41] | K. pneumoniae KP153 (tet resistant: tetA efflux) | 16 |
| CN(C)[C@@H]1C(O)=C(C(N)=O)C(=O)[C@@]2(O)C(O)=C3C(=O)c4c(O)c(NC(=O)CN5CC6CCCC6C5)cc(F)c4C[C@H]3C[C@@H]12 (stereo partly drawn) [Compound 45] | K. pneumoniae KP153 (tet resistant: tetA efflux) | 4 |

Consider the record given below.
So, CN(C)[C@@H]1C(O)=C(C(N)=O)C(=O)[C@@]2(O)C(O)=C3C(=O)c4c(O)c(NC(=O)CNC5CCCC5)cc(F)c4C[C@H]3C[C@@H]12 [Compound 18] ? Its MIC was 4

----------
- System: S. aureus SA161 (tet resistant: tet(M) ribosomal protection)
- measurement description: Minimum inhibitory concentration assay, SA161
- Format: cell-based
- conditions used: Staphylococcus aureus, read-out: MICs SA161
- Description: Frozen bacterial strains were thawed and subcultured onto Mueller Hinton Broth (MHB) or other appropriate media (Streptococcus requires blood and Haemophilus requires hemin and NAD). […] The assays were run as follows. […] The plates were then incubated at 37° C. overnight, removed from the incubator and each well was read on a plate reading mirror. The lowest concentration (MIC) of test compound that inhibited the growth of the bacteria was recorded.
property: MIC

Worked set:
| structure smiles | MIC |
| --- | --- |
| CC(C)NCC(=O)Nc1cc(F)c2c(c1O)C(=O)C1=C(O)[C@]3(O)C(=O)C(C(N)=O)=C(O)[C@@H](N(C)C)[C@@H]3C[C@@H]1C2 | 0.25 µg/mL |
| CN(C)[C@@H]1C(O)=C(C(N)=O)C(=O)[C@@]2(O)C(O)=C3C(=O)c4c(O)c(NC(=O)CN5CC[C@H](O)C5)cc(F)c4C[C@H]3C[C@@H]12 | 1 µg/mL |
| CN(C)[C@@H]1C(O)=C(C(N)=O)C(=O)[C@@]2(O)C(O)=C3C(=O)c4c(O)c(NC(=O)CNC5CCCC5)cc(F)c4C[C@H]3C[C@@H]12 | 0.0625 µg/mL |
| CCCCCCCNCC(=O)Nc1cc(F)c2c(c1O)C(=O)C1=C(O)[C@]3(O)C(=O)C(C(N)=O)=C(O)[C@@H](N(C)C)[C@@H]3C[C@@H]1C2 | 4 µg/mL |

Consider the record given below.
So, "COCCCNCC(=O)Nc1cc(F)c2c(c1O)C(=O)C1=C(O)[C@]3(O)C(=O)C(C(N)=O)=C(O)[C@@H](N(C)C)[C@@H]3C[C@@H]1C2" ? Its MIC was 4 µg/mL

----------
- Tested on: S. aureus ATCC 29213 (SA101, MSSA)
property: MIC (µg/mL)
The response must be a number in µg/mL with no trailing unit.

S. aureus ATCC 29213 (SA101, MSSA) data for COC[C@H]1CCCN1CC(=O)Nc1cc(F)c2c(c1O)C(=O)C1=C(O)[C@]3(O)C(=O)C(C(N)=O)=C(O)[C@@H](N(C)C)[C@@H]3C[C@@H]1C2 [Compound 42] ; its MIC: 0.5

S. aureus ATCC 29213 (SA101, MSSA) data for CC(C)CNCC(=O)Nc1cc(F)c2c(c1O)C(=O)C1=C(O)[C@]3(O)C(=O)C(C(N)=O)=C(O)[C@@H](N(C)C)[C@@H]3C[C@@H]1C2 [Compound 19] ; its MIC: 0.125

S. aureus ATCC 29213 (SA101, MSSA) data for CN(C)[C@@H]1C(O)=C(C(N)=O)C(=O)[C@@]2(O)C(O)=C3C(=O)c4c(O)c(NC(=O)CNC(C)(C)C)cc(F)c4C[C@H]3C[C@@H]12 [Compound 11] ; its MIC: 0.125

S. aureus ATCC 29213 (SA101, MSSA) data for CCCCCCNCC(=O)Nc1cc(F)c2c(c1O)C(=O)C1=C(O)[C@]3(O)C(=O)C(C(N)=O)=C(O)[C@@H](N(C)C)[C@@H]3C[C@@H]1C2 [Compound 14] ; its MIC: 0.5

S. aureus ATCC 29213 (SA101, MSSA) data for CN(C)[C@@H]1C(O)=C(C(N)=O)C(=O)[C@@]2(O)C(O)=C3C(=O)c4c(O)c(NC(=O)CNCC(C)(C)C)cc(F)c4C[C@H]3C[C@@H]12 [Compound 15] ; its MIC: 0.5

S. aureus ATCC 29213 (SA101, MSSA) data for CCCN(C)CC(=O)Nc1cc(F)c2c(c1O)C(=O)C1=C(O)[C@]3(O)C(=O)C(C(N)=O)=C(O)[C@@H](N(C)C)[C@@H]3C[C@@H]1C2 [Compound 28] ; its MIC: 1

S. aureus ATCC 29213 (SA101, MSSA) data for CN(CC(=O)Nc1cc(F)c2c(c1O)C(=O)C1=C(O)[C@]3(O)C(=O)C(C(N)=O)=C(O)[C@@H](N(C)C)[C@@H]3C[C@@H]1C2)C1CCCC1 [Compound 31] ; its MIC: 1

S. aureus ATCC 29213 (SA101, MSSA) data for CN(C)[C@@H]1CCN(CC(=O)Nc2cc(F)c3c(c2O)C(=O)C2=C(O)[C@]4(O)C(=O)C(C(N)=O)=C(O)[C@@H](N(C)C)[C@@H]4C[C@@H]2C3)C1 [Compound 37] ; its MIC: 8

S. aureus ATCC 29213 (SA101, MSSA) data for CN(C)[C@H]1CCN(CC(=O)Nc2cc(F)c3c(c2O)C(=O)C2=C(O)[C@]4(O)C(=O)C(C(N)=O)=C(O)[C@@H](N(C)C)[C@@H]4C[C@@H]2C3)C1 [Compound 38] ; its MIC: 8

S. aureus ATCC 29213 (SA101, MSSA) data for CC(C)NCC(=O)Nc1cc(F)c2c(c1O)C(=O)C1=C(O)[C@]3(O)C(=O)C(C(N)=O)=C(O)[C@@H](N(C)C)[C@@H]3C[C@@H]1C2 [Compound 16] ; its MIC: 0.125

Reference for the values: patent US8796245B2
